Where do the numbers come from? From PubChem BioAssay (NCI).

Measured TGI of individual entries
- Test system: UACC-62 melanoma
- TEST_DETAILS: NCI tumour cell line growth inhibition, 48 h

COMPOUND	TGI
c1ccc(C2N3CCCCC3[C@@H]3c4[nH]c5ccccc5c4CCN23)cc1 (stereo partly drawn)	> 100 µM
C[C@@]1(N2C(=O)OC[C@@H]2c2ccccc2)C(=O)N([C@H](CC(=O)N2CCC(N3CCCCC3)CC2)C(=O)NCc2cccc(C(F)(F)F)c2)[C@@H]1/C=C/c1ccccc1	3.78 µM
c1ccc2c(c1)C(=Nc1ccc(N=C3c4ccccc4-c4ccccc43)cc1)c1ccccc1-2	> 100 µM
COc1ccc(/C(C)=N/NC(N)=S)c(OC)c1	> 100 µM
COc1cc2c3c(c4c5ccccc5[nH]c4c2c(OC)c1OC)C(=O)N(CCN1CCCCC1)C3=O	9.12 µM
COC(Cc1ccccc1)NC(C)=O (stereo not drawn)	> 100 µM
CC(=O)OCc1cn(S(=O)(=O)c2ccc(C)cc2)cn1	> 100 µM
Cc1cccc(NC(=O)CC#N)c1Cl	> 100 µM

====

- System: OVCAR-8 ovarian
- TEST_DETAILS: NCI tumour cell line growth inhibition, 48 h
OBSERVED_PROPERTY: TGI

COMPOUND	OBSERVED_PROPERTY	REPORTED_MEASUREMENT
Cn1cnc([N+](=O)[O-])c1Sc1nc(N)nc2c1ncn2Cc1ccccc1	TGI	72.2 µM
CC([O-])C(=O)[O-].NCC1CCC1CN.[Pt+4] (stereo unspecified)	TGI	> 10 µM
CP(C)(=S)P(C)(C)=S	TGI	> 100 µM
CCCN1CCN(c2ccc3nc(-c4ccc5nc(-c6ccc(OCC)c(OCC)c6)[nH]c5c4)[nH]c3c2)CC1	TGI	2.16 µM
CCCCOC(=O)C1CN2C(=NC1(C(F)(F)F)C(F)(F)F)Sc1ccccc12 (stereo unspecified)	TGI	> 100 µM
Cc1nn(C)c2c1C(=O)N(C)CC(=O)N2C	TGI	> 100 µM
O=C1c2cccnc2C(=O)c2c1c(C(=O)OCCN1CCOCC1)c1ccccn21	TGI	9.21 µM
O=C1c2ccccc2C(=O)c2c1ccc1c2OCO1	TGI	> 100 µM
CC1=C(c2cc(C(=O)Nc3nccs3)nc(NC#N)n2)Sc2ccccc2N1	TGI	> 100 µM
COc1cc(-c2cc(CCC(=O)Nc3ccccc3[N+](=O)[O-])n(-c3ccc([N+](=O)[O-])cc3[N+](=O)[O-])n2)ccc1O	TGI	> 100 µM
N=c1ccn2c(n1)O[C@@H]1[C@@H](O)[C@H](CO)O[C@@H]12	TGI	> 100 µM
O=C(O)C(F)(OC(F)(F)C(F)(OC(F)(F)C(F)(F)C(F)(F)F)C(F)(F)F)C(F)(F)F (stereo unspecified)	TGI	> 100 µM
BrC12c3ccccc3Sc3ccccc3C1(Br)c1ccccc12 (stereo unspecified)	TGI	> 100 µM
CN(C)CCC1(C2=CCCC2)CC/C(=C\c2ccccc2)C1=O (stereo unspecified)	TGI	29.6 µM
COC(=O)C1C2CCCN2OC1(C)CO (stereo unspecified)	TGI	> 100 µM
Cc1nn(-c2ccc(Br)cc2)c(C)c1CC(=O)c1cc(O)ccc1O	TGI	23.2 µM
O=C(/C(=C/c1cccs1)c1ccccc1)c1ccccc1	TGI	> 100 µM
Cc1ccccc1/C=C1\CN(C(=O)OC(C)(C)C)C/C(=C\c2ccccc2C)C1=O	TGI	> 100 µM
COC(=O)CCC(=O)c1ccc2c(c1)CC1(C2)Cc2ccc3c(c2C1)CCCC3=O (stereo unspecified)	TGI	> 100 µM
S=C(Nc1ccccc1)N1N=C2c3ccccc3CC[C@H]2[C@@H]1c1ccccc1	TGI	> 100 µM
CC1=NN(C(=O)Cc2ccccc2)C(=O)/C1=C\c1ccco1	TGI	> 100 µM
CN1CCCN(C(c2ccccc2)c2ccc(Br)cc2)CC1 (stereo unspecified)	TGI	21 µM
COc1ccc(C(=O)O)c(Cc2ccc3ccccc3c2)c1	TGI	> 100 µM
Cc1cc2[nH]c3c(C#N)c(-c4ccccc4)c(CN4CCOCC4)c(=O)n3c2cc1C	TGI	> 100 µM
COC(=O)C(Cc1nc2ccccc2[nH]c1=O)C(=O)C(=O)Nc1ccc(OC)cc1[N+](=O)[O-] (stereo unspecified)	TGI	> 100 µM
CCn1cnc2c(NC(C)=O)ncnc21	TGI	> 100 µM
COC(Cc1ccccc1)NC(C)=O (stereo unspecified)	TGI	> 100 µM
CC(C)[C@@H]1CC[C@@H]2[C@@H]1[C@H](OC(=O)/C=C/c1ccccc1)[C@]1(C(C)C)C[C@@H](OC(=O)CO)[C@@]2(C)O1	TGI	9.86 µM
COc1cc([C@@H]2c3cc4c(c(O)c3C[C@H]3COC(=O)[C@@H]32)OCO4)cc(OC)c1O	TGI	> 200 µM
COC(=O)C1CCC(=O)N1C(c1ccc2c(c1)OCO2)c1ccc2c(c1)OCO2 (stereo unspecified)	TGI	> 100 µM
CCOC1SC(SC)=NN1C(=O)C(OC(C)=O)C(OC(C)=O)C(OC(C)=O)C(OC(C)=O)C(=O)N1N=C(SC)SC1OCC (stereo unspecified)	TGI	> 100 µM

====

Measured TGI of individual entries
- Tested on: SNB-19 CNS
- TEST_DETAILS: NCI tumour cell line growth inhibition, 48 h
OBSERVED_PROPERTY: TGI (µM)

COMPOUND	OBSERVED_PROPERTY	COMPARISON_SIGN	REPORTED_MEASUREMENT
BrC12c3ccccc3Sc3ccccc3C1(Br)c1ccccc12 (stereo not given)	TGI	>	100
CC(C)CC(=O)NS(=O)(=O)c1ccccc1	TGI	>	100
CCCCCCCCCCCCP(=O)(O)OCC(N)C(=O)O (stereo not given)	TGI	=	44.7
O=S(=O)(NCCCNc1cc(-c2cn(-c3ccccc3)nc2-c2cccc(O)c2)ccn1)c1ccc(Cl)cc1	TGI	=	8.37
COc1ccc(/C(C)=N/NC(N)=S)c(OC)c1	TGI	>	100

====

Measured TGI of individual entries
- Tested on: SK-MEL-28 melanoma
- TEST_DETAILS: NCI tumour cell line growth inhibition, 48 h

COMPOUND	TGI
COc1cc(OC)cc(-c2cncn2-c2ccc(-c3nc4cc(OC)c(OC)c(OC)c4s3)cc2)c1	> 100 µM
CCOP(=O)(OCC)/C(C#N)=C/c1c(C)[nH]c2ccccc12	> 100 µM
COc1ccc(C(=O)O)c(Cc2ccc3ccccc3c2)c1	> 100 µM
O=C(O)C(F)(OC(F)(F)C(F)(OC(F)(F)C(F)(F)C(F)(F)F)C(F)(F)F)C(F)(F)F (configuration not stated)	> 100 µM
C=C1N(C)c2ccc(Cl)cc2C1(C)C	> 100 µM
CCN1CCN(C(=O)[C@]23CCC(C)(C)C[C@@H]2C2=CC[C@@H]4[C@@]5(C)C/C(=C/c6cccnc6)C(=O)C(C)(C)[C@@H]5CC[C@@]4(C)[C@]2(C)CC3)CC1	2.83 µM
CC[C@@]1(O)C(=O)OCc2c1cc1n(c2=O)Cc2c-1nc1ccccc1c2/C=N/OC(C)(C)C	9.07 µM
CCC/C(=N\NC(=O)c1cc2ccccc2cc1O)C(CC)C(=O)CCC(=O)N(Cc1ccccc1)Cc1ccccc1 (configuration not stated)	> 100 µM
S=C(Nc1ccccc1)N1N=C2c3ccccc3CC[C@H]2[C@@H]1c1ccccc1	> 100 µM
Cc1cc(N=Nc2ccc(N=Nc3c(O)c(S(=O)(=O)O)cc4cc(S(=O)(=O)O)ccc34)cc2C)ccc1N=Nc1ccc2cc(S(=O)(=O)O)cc(S(=O)(=O)O)c2c1	> 100 µM
CN1CCN(c2ccc(-n3cc(C(=O)O)c(=O)c4cc(F)c(N5CCN(C)CC5)cc43)nc2)CC1	> 100 µM
COc1ccc(CNc2nc(NCc3ccc(OC)cc3)c3n[nH]c(C(C)C)c3n2)cc1	16 µM

====

- Test system: 786-0 renal
- TEST_DETAILS: NCI tumour cell line growth inhibition, 48 h
Measured TGI of individual entries

COMPOUND	TGI
N/N=C(\C(=O)Nc1ccc([N+](=O)[O-])cc1)C(C1=Nc2cc([N+](=O)[O-])ccc2NC1)[N+](=O)[O-] (stereo not drawn)	> 100 µM
CCCCOC(=O)C1CN2C(=NC1(C(F)(F)F)C(F)(F)F)Sc1ccccc12 (stereo not drawn)	> 100 µM
CCNc1ncnc2n[nH]nc12	> 100 µM

====

- Tested on: NCI-H460 lung
- TEST_DETAILS: NCI tumour cell line growth inhibition, 48 h
Measured TGI of individual entries
OBSERVED_PROPERTY: TGI

COMPOUND	TARGET_OF_ASSAY	REPORTED_MEASUREMENT
CC(C)=CCC[C@H](C)[C@H]1CC[C@@H](C)c2cc(O)c(C)cc21	NCI-H460 lung	33.7 µM
Cc1cc(NCCCCCCNc2cc(C)nc3ccc(Cl)cc23)c2cc(Cl)ccc2n1	NCI-H460 lung	29.8 µM
O=c1[nH]c(/C=C(\O)c2ccncc2)nc2ccccc12	NCI-H460 lung	> 100 µM
NC(N)=Nc1nc2ccccc2[nH]1	NCI-H460 lung	> 150 µg/mL
C/C(=N\Nc1nc2ccccc2o1)c1ccncn1	NCI-H460 lung	> 42.6 µM
CC(C)(C)NC1C2CCC(C)(C1O)C2(C)C (configuration not stated)	NCI-H460 lung	> 100 µM
N/N=C(\C(=O)Nc1ccc([N+](=O)[O-])cc1)C(C1=Nc2cc([N+](=O)[O-])ccc2NC1)[N+](=O)[O-] (configuration not stated)	NCI-H460 lung	> 100 µM
CC(=O)OCC1OC(n2c(-c3ccccc3)c(C)c(C)c(C#N)c2=S)C(OC(C)=O)C(OC(C)=O)C1OC(C)=O (configuration not stated)	NCI-H460 lung	> 100 µM
Cc1cc(N=Nc2ccc(N=Nc3c(O)c(S(=O)(=O)O)cc4cc(S(=O)(=O)O)ccc34)cc2C)ccc1N=Nc1ccc2cc(S(=O)(=O)O)cc(S(=O)(=O)O)c2c1	NCI-H460 lung	> 100 µM
CCCCOC(=O)C1CN2C(=NC1(C(F)(F)F)C(F)(F)F)Sc1ccccc12 (configuration not stated)	NCI-H460 lung	> 100 µM
Cn1c(=S)sc2nc3ccccc3n2c1=S	NCI-H460 lung	27.9 µM
CC(NC(=O)C(N)CC(=O)O)NC(=O)N1CCCC1 (configuration not stated)	NCI-H460 lung	> 100 µM
Cc1nc(C)c(N2CCN(C#N)CC2)c(=O)[nH]1	NCI-H460 lung	> 100 µM
[N-]=[N+]=NC1=C(c2ccccc2)C(=O)c2cccc3cccc1c23	NCI-H460 lung	28.7 µM
COc1cc(OC)nc(Nc2c(C#N)c3nc4ccccc4n3c3ccccc23)n1	NCI-H460 lung	> 100 µM
CCC(/C(=N\Nc1c(Cl)cc(Cl)cc1Cl)c1ccccc1)n1ccnc1C (configuration not stated)	NCI-H460 lung	29.4 µM
COc1ccc(Nc2ncccc2C(=O)NCc2cn(Cc3cccc(Oc4ccccc4)c3)nn2)cc1	NCI-H460 lung	> 100 µM
OCSc1nn(CO)c(=S)s1	NCI-H460 lung	54.5 µM
COc1ccc(-c2nocc2-c2cc(OC)c(OC)c(OC)c2)cc1	NCI-H460 lung	15.5 µM
CCOP(C)(=O)C(Nc1ccc(F)cc1)c1ccc(F)cc1 (configuration not stated)	NCI-H460 lung	> 100 µM
CC(C)Oc1ccc(C(=O)N[C@H](CNC(=O)CN(C)C)Cc2ccc(-c3cn4cccc([C@H](C)O)c4n3)cc2)cc1Cl	NCI-H460 lung	12.6 µM
CCN(CC)c1nc(N(C)C)c2cc(OC)ccc2n1	NCI-H460 lung	> 100 µM
COc1cc2c3c(c4c5ccccc5[nH]c4c2c(OC)c1OC)C(=O)N(CCN1CCCCC1)C3=O	NCI-H460 lung	2.1 µM
C/C(=N\NC(=O)c1ccncc1)c1ccc(O)cc1O	NCI-H460 lung	> 100 µM
C=C(C(=O)O)[C@@H]1C[C@@H]2O[C@H]1CC(C)=CCC/C(C)=C/CC[C@@]2(C)O	NCI-H460 lung	> 100 µM
CCOP(=O)(OCC)/C(C#N)=C/c1c(C)[nH]c2ccccc12	NCI-H460 lung	> 100 µM
CN(C)/C(N)=N/C(N)=S	NCI-H460 lung	> 100 µM
